Tested on: A673/TR/shEF
ASSAY METHOD TEXT: cell viability (LOESS-normalised, relative to median of negative controls) (log2 ratio); higher = more viable cells (less compound effect), active = hit call of the paper (over 3 MAD below the median)
TEST PARAMETERS: 8.3 µM; library screen: screen3; EWS-FLI1 expression: low (doxycycline-induced shRNA knockdown); treatment time: 72 h
The whole screen tested about 3,200 compounds, of which about 300 (9.4%) showed activity. For the sample, actives were picked, then their nearest neighbours and some compounds at random.
// returns False unless cell viability (log2) is strictly below -0.03, in which case True

Use these answered entries as a reference point.
* CCC1(c2ccccc2)C(=O)NCNC1=O | False
* O=C1c2c(O)ccc(O)c2C(=O)c2c(NCCNCCO)ccc(NCCNCCO)c21 | True
* CCCCCCCCCC(=O)N[C@@H](Cc1c[nH]c2ccccc12)C(=O)N[C@@H](CC(N)=O)C(=O)N[C@@H](CC(=O)O)C(=O)NC1C(=O)NCC(=O)N[C@@H](CCCN)C(=O)N[C@@H](CC(=O)O)C(=O)N[C@H](C)C(=O)N[C@@H](CC(=O)O)C(=O)NCC(=O)N[C@H](CO)C(=O)N[C@@H](C(C)CC(=O)O)C(=O)N[C@@H](CC(=O)c2ccccc2N)C(=O)OC1C (stereo partly drawn) | False
* Cc1ccncc1Nc1ncccc1C(=O)Nc1ccc(C2(C#N)CCCC2)cc1 | False
* CN1/C(=C(\O)Nc2ccccn2)C(=O)c2ccccc2S1(=O)=O | False

Exam item: Does the reported cell viability (log2) of the following compound sit strictly below -0.03? `O=C1NC(=O)C(c2ccccc2)(c2ccccc2)N1`
Marked response: False

Exam item: Does the reported cell viability (log2) of the following compound sit strictly below -0.03? `COc1c(C)c2c(c(O)c1C/C=C(\C)CCC(=O)O)C(=O)OC2`
Marked response: True

Exam item: Does the reported cell viability (log2) of the following compound sit strictly below -0.03? `CN(C)C/C=C/C(=O)Nc1cc2c(Nc3ccc(F)c(Cl)c3)ncnc2cc1O[C@H]1CCOC1`
Marked response: True

Exam item: Does the reported cell viability (log2) of the following compound sit strictly below -0.03? `Nc1nc(Cl)nc2c1ncn2[C@H]1C[C@H](O)[C@@H](CO)O1`
Marked response: True

Exam item: Does the reported cell viability (log2) of the following compound sit strictly below -0.03? `COc1c(C)c2c(c(O)c1C/C=C(\C)CCC(=O)OCCN1CCOCC1)C(=O)OC2`
Marked response: False
